tested on: HEK293T cells; assay: Expression efficiency of capped luciferase mRNAs in HEK293T cells; type: cell-based; details: 6 h after transfection of capped luciferase mRNA; reading of N-7413 = 1 (Table 5)

[
  {
    "Compound": "CNc1ncnc2c1ncn2C1OC(COP(=O)(O)OP(=O)(O)OP(=O)(O)OCC2OC(n3c[n+](C)c4c(=O)[nH]c(N)nc43)C(O)C2(C)F)C(OP(=O)([O-])OCC2OC(n3cnc4c(=O)[nH]c(N)nc43)C(O)C2O)C1OC (stereo not shown) [Compound D95]",
    "Measured on": "HEK293T cells",
    "Relative fluorescence reading": 0.83
  },
  {
    "Compound": "COCC1(F)C(COP(=O)(O)OP(=O)(O)OP(=O)(O)OCC2OC(n3cnc4c(N)ncnc43)C(OC)C2OP(=O)([O-])OCC2OC(n3cnc4c(=O)[nH]c(N)nc43)C(O)C2O)OC(n2c[n+](Cc3ccc(OC)cc3)c3c(=O)[nH]c(N)nc32)C1O (stereo not shown) [Compound D94]",
    "Measured on": "HEK293T cells",
    "Relative fluorescence reading": 1.85
  },
  {
    "Compound": "COCC1(F)C(COP(=O)(O)CP(=O)(O)OP(=O)(O)OCC2OC(n3cnc4c(N)ncnc43)C(OC)C2OP(=O)([O-])OCC2OC(n3cnc4c(=O)[nH]c(N)nc43)C(O)C2O)OC(n2c[n+](C)c3c(=O)[nH]c(N)nc32)C1O (stereo not shown) [Compound D23]",
    "Measured on": "HEK293T cells",
    "Relative fluorescence reading": 0.93
  },
  {
    "Compound": "C=CC[n+]1cn(C2OC(COP(=O)(O)OP(=O)(O)OP(=O)(O)OCC3OC(n4cnc5c(N)ncnc54)C(OC)C3OP(=O)([O-])OCC3OC(n4cnc5c(=O)[nH]c(N)nc54)C(O)C3O)C(F)(COC)C2O)c2nc(N)[nH]c(=O)c21 (stereo not shown) [Compound D90]",
    "Measured on": "HEK293T cells",
    "Relative fluorescence reading": 1.44
  }
]

====

target: T7 RNA Polymerase (Escherichia phage T7); experiment: Detection of the efficiency of mRNA capping synthesis (in vitro transcription, product yield); type: biochemical; conditions: 20 µL mRNA synthesis reaction system, method of Example 20 (Table 4)
Sequence (P00573 whole entry): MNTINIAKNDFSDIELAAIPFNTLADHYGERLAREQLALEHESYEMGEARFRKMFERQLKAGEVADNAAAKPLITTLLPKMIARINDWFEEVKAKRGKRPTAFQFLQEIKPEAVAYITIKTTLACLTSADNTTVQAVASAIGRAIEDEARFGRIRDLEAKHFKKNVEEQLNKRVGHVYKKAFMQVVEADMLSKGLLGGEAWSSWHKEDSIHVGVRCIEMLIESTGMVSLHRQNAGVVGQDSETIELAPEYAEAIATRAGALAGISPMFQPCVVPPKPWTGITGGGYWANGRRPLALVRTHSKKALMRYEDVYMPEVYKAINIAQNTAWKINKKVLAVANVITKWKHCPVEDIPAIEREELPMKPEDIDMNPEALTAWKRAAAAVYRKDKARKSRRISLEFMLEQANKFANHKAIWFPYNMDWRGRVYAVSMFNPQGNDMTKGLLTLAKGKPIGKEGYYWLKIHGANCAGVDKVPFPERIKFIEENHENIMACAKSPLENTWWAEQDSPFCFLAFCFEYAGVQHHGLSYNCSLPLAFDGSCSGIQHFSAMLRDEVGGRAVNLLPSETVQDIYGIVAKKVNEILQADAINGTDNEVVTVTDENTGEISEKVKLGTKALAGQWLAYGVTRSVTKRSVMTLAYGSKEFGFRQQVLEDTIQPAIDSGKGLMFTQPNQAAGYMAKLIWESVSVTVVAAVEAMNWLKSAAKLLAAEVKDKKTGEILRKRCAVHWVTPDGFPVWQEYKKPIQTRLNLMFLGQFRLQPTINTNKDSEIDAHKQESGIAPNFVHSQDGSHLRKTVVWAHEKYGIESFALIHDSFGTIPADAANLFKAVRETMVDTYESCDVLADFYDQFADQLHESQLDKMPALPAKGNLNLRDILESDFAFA
Listing of recorded Final product mass by entry.
Readout type: Final product mass (µg)

[
  {
    "Molecule": "COCC1(F)C(COP(=O)(O)CP(=O)(O)OP(=O)(O)OCC2OC(n3cnc4c(N)ncnc43)C(OC)C2OP(=O)([O-])OCC2OC(n3cnc4c(=O)[nH]c(N)nc43)C(O)C2O)OC(n2c[n+](C)c3c(=O)[nH]c(N)nc32)C1O (stereo not shown)",
    "Readout type": "Final product mass",
    "Recorded result": 96
  },
  {
    "Molecule": "COCC1(F)C(COP(=O)(O)OP(=O)(O)OP(=O)(O)OCC2OC(n3cnc4c(N)ncnc43)C(OC)C2OP(=O)([O-])OCC2OC(n3cnc4c(=O)[nH]c(N)nc43)C(O)C2O)OC(n2c[n+](Cc3ccccc3)c3c(=O)[nH]c(N)nc32)C1O (stereo not shown)",
    "Readout type": "Final product mass",
    "Recorded result": 114
  },
  {
    "Molecule": "COCC1(F)C(COP(=O)(O)OP(=O)(O)OP(=O)(O)OCC2OC(n3cnc4c(N)ncnc43)C(OC)C2OP(=O)([O-])OCC2OC(n3cnc4c(=O)[nH]c(N)nc43)C(O)C2O)OC(n2c[n+](Cc3ccc(OC)cc3)c3c(=O)[nH]c(N)nc32)C1O (stereo not shown)",
    "Readout type": "Final product mass",
    "Recorded result": 116
  },
  {
    "Molecule": "CO[C@@H]1[C@H](OP(=O)([O-])OC[C@H]2O[C@@H](n3cnc4c(=O)[nH]c(N)nc43)[C@H](O)[C@@H]2O)[C@@H](COP(=O)(O)OP(=O)(O)OP(=O)(O)OC[C@H]2O[C@@H](n3c[n+](C)c4c(=O)[nH]c(N)nc43)[C@H](O)[C@]2(F)C(=O)N(C)C)O[C@H]1n1cnc2c(N)ncnc21",
    "Readout type": "Final product mass",
    "Recorded result": 146
  }
]

src = patent EP4653448A1
